Target: Histone deacetylase 1 (Homo sapiens)
Sequence (Q13547 whole entry): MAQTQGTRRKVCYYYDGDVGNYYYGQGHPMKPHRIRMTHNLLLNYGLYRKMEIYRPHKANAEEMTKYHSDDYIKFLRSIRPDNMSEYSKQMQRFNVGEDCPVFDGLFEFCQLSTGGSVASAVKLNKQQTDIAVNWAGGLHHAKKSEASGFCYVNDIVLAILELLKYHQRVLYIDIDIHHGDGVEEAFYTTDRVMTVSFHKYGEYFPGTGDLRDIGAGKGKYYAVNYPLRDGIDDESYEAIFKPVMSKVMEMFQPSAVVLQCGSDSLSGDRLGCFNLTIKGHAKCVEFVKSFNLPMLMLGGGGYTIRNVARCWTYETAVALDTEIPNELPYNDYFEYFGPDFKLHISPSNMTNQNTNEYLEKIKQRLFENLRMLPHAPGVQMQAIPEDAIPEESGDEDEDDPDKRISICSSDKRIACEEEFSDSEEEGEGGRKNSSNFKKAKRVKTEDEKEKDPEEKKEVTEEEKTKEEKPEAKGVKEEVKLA
Assay: Inhibition of human KDAC1 at 30 uM using substrate A after 60 mins by fluorescence assay relative to control
Each entry gets rule not met if its inhibition stays under 7%, and rule met if its inhibition is 7% or above.

{"Structure Smiles": "C[C@@H]1N=C(c2ccccc2)c2ccccc2NC1=O", "Label Value": "rule met"}
{"Structure Smiles": "CC(C)(C)Oc1ccc(C[C@@H]2N=C(c3ccccc3)c3ccccc3NC2=O)cc1", "Label Value": "rule not met"}
{"Structure Smiles": "COC(=O)CCCCN1C(=O)[C@H](Cc2cncn2C(c2ccccc2)(c2ccccc2)c2ccccc2)N=C(c2ccccc2)c2ccccc21", "Label Value": "rule not met"}
{"Structure Smiles": "C[C@@H](OCc1ccccc1)[C@@H]1N=C(c2ccccc2)c2ccccc2N(CCCCC(=O)NO)C1=O", "Label Value": "rule met"}
{"Structure Smiles": "COC(=O)CCCCN1C(=O)[C@H](CC(=O)OC(C)(C)C)N=C(c2ccccc2)c2ccccc21", "Label Value": "rule not met"}
{"Structure Smiles": "NC(=O)CC[C@@H]1N=C(c2ccccc2)c2ccccc2N(CCCCC(=O)NO)C1=O", "Label Value": "rule met"}
{"Structure Smiles": "O=C(CC[C@H]1N=C(c2ccccc2)c2ccccc2NC1=O)NO", "Label Value": "rule met"}

###

Molecular target: UniProtKB O15379

{"Structure Smiles": "CC(C)(C)OC(=O)C[C@@H]1N=C(c2ccccc2)c2ccccc2N(CCCCC(=O)O)C1=O", "IC50": "> 30 µM"}
{"Structure Smiles": "COC(=O)CCCCN1C(=O)[C@H](CCC(=O)OC(C)(C)C)N=C(c2ccccc2)c2ccccc21", "IC50": "> 30 µM"}
{"Structure Smiles": "CC(C)(C)OC(=O)CC[C@@H]1N=C(c2ccccc2)c2ccccc2N(CCCCC(=O)NO)C1=O", "IC50": "1.03 µM"}

###

Molecular target: Histone deacetylase 8 (Homo sapiens) (UniProt Q9BY41)
Sequence (Q9BY41 whole entry): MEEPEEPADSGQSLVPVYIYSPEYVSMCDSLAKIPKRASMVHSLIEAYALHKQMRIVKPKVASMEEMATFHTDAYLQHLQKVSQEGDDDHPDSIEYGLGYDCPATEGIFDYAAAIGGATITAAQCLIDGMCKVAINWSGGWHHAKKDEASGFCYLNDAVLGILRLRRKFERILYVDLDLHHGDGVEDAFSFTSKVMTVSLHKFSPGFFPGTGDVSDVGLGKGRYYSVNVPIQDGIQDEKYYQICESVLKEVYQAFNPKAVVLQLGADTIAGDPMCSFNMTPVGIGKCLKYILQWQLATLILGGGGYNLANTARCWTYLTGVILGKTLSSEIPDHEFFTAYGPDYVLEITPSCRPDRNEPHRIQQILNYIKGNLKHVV
Experiment: Inhibition of human KDAC8 at 30 uM after 60 mins by fluorescence assay relative to control
Listed compounds paired with reported inhibition

{"Structure Smiles": "CC(C)(C)Oc1ccc(C[C@@H]2N=C(c3ccccc3)c3ccccc3N(CCCCC(=O)NO)C2=O)cc1", "inhibition, %": 89.9}
{"Structure Smiles": "COC(=O)CCCCN1C(=O)[C@H]([C@@H](C)OCc2ccccc2)N=C(c2ccccc2)c2ccccc21", "inhibition, %": 6.88}
{"Structure Smiles": "N=C(N)NCCC[C@@H]1N=C(c2ccccc2)c2ccccc2N(CCCCC(=O)NO)C1=O", "inhibition, %": 27.9}
{"Structure Smiles": "COC(=O)CCCCN1C(=O)[C@H](CCC(=O)OC(C)(C)C)N=C(c2ccccc2)c2ccccc21", "inhibition, %": 2.88}
{"Structure Smiles": "O=C(O)CC[C@@H]1N=C(c2ccccc2)c2ccccc2NC1=O", "inhibition, %": 0}
{"Structure Smiles": "NC(=O)C[C@@H]1N=C(c2ccccc2)c2ccccc2N(CCCCC(=O)NO)C1=O", "inhibition, %": 26.2}
{"Structure Smiles": "O=C(O)CCCCN1C(=O)CN=C(c2ccccc2)c2ccccc21", "inhibition, %": 4.33}
{"Structure Smiles": "CC(C)(C)OC[C@@H]1N=C(c2ccccc2)c2ccccc2NC1=O", "inhibition, %": 0}
{"Structure Smiles": "O=C1Nc2ccccc2C(c2ccccc2)=N[C@H]1Cc1ccccc1", "inhibition, %": 0}
{"Structure Smiles": "CC(C)(C)SC[C@H]1N=C(c2ccccc2)c2ccccc2NC1=O", "inhibition, %": 16.1}

###

Listed molecules paired with reported inhibition
Target: Histone deacetylase 8 (Homo sapiens) (UniProt Q9BY41)
Assay: Inhibition of human KDAC8 at 30 uM after 60 mins by fluorescence assay relative to control

{"Structure Smiles": "O=C(CC[C@@H]1N=C(c2ccccc2)c2ccccc2NC1=O)NO", "inhibition": "43.8%"}
{"Structure Smiles": "COC(=O)CCCCN1C(=O)[C@@H](CSC(C)(C)C)N=C(c2ccccc2)c2ccccc21", "inhibition": "0%"}
{"Structure Smiles": "CC(C)(C)OC(=O)C[C@@H]1N=C(c2ccccc2)c2ccccc2NC1=O", "inhibition": "5.34%"}
{"Structure Smiles": "O=C(CCCCN1C(=O)[C@H](CC(=O)NO)N=C(c2ccccc2)c2ccccc21)NO", "inhibition": "10%"}
{"Structure Smiles": "O=C(CCCNC(=O)CC[C@@H]1N=C(c2ccccc2)c2ccccc2NC1=O)NO", "inhibition": "33.6%"}
{"Structure Smiles": "COC(=O)CCCCN1C(=O)[C@H](C)N=C(c2ccccc2)c2ccccc21", "inhibition": "12.7%"}
{"Structure Smiles": "CSCC[C@@H]1N=C(c2ccccc2)c2ccccc2N(CCCCC(=O)O)C1=O", "inhibition": "2.75%"}

###

Listed compounds paired with reported IC50
Target: Histone deacetylase 1 (Homo sapiens)
Experiment: Inhibition of human KDAC1 using substrate A after 60 mins by fluorescence assay

{"Structure Smiles": "O=C(CCCCN1C(=O)[C@H](CCC(=O)NC(c2ccccc2)(c2ccccc2)c2ccccc2)N=C(c2ccccc2)c2ccccc21)NO", "IC50": "9.24 µM"}
{"Structure Smiles": "CC(C)(C)OC(=O)CC[C@@H]1N=C(c2ccccc2)c2ccccc2NC1=O", "IC50": "> 30 µM"}
{"Structure Smiles": "CC(C)(C)OC(=O)NCCCC[C@@H]1N=C(c2ccccc2)c2ccccc2NC1=O", "IC50": "> 30 µM"}
{"Structure Smiles": "COC(=O)CCCCN1C(=O)[C@H](Cc2ccc(OC(C)(C)C)cc2)N=C(c2ccccc2)c2ccccc21", "IC50": "> 30 µM"}
{"Structure Smiles": "COC(=O)CCCCN1C(=O)[C@H](CCSC)N=C(c2ccccc2)c2ccccc21", "IC50": "> 30 µM"}
{"Structure Smiles": "O=C1Nc2ccccc2C(c2ccccc2)=N[C@H]1Cc1cn(C(c2ccccc2)(c2ccccc2)c2ccccc2)cn1", "IC50": "> 30 µM"}
{"Structure Smiles": "COC(=O)CCCCN1C(=O)[C@H](CCCNC(=N)NS(=O)(=O)c2c(C)c(C)c3c(c2C)CC(C)(C)O3)N=C(c2ccccc2)c2ccccc21", "IC50": "> 30 µM"}
{"Structure Smiles": "Cc1c(C)c(S(=O)(=O)NC(=N)NCCC[C@@H]2N=C(c3ccccc3)c3ccccc3N(CCCCC(=O)NO)C2=O)c(C)c2c1OC(C)(C)C2", "IC50": "> 30 µM"}
{"Structure Smiles": "CC(C)(C)Oc1ccc(C[C@@H]2N=C(c3ccccc3)c3ccccc3N(CCCCC(=O)O)C2=O)cc1", "IC50": "> 30 µM"}
{"Structure Smiles": "CC(C)(C)OC[C@@H]1N=C(c2ccccc2)c2ccccc2N(CCCCC(=O)NO)C1=O", "IC50": "9 µM"}
{"Structure Smiles": "CC(C)[C@@H]1N=C(c2ccccc2)c2ccccc2N(CCCCC(=O)NO)C1=O", "IC50": "5.27 µM"}
{"Structure Smiles": "COC(=O)CCCCN1C(=O)CN=C(c2ccccc2)c2ccccc21", "IC50": "> 30 µM"}

###

Biological target: UniProt Q13547

{"Structure Smiles": "O=C(O)CCCCN1C(=O)[C@H](Cc2ccccc2)N=C(c2ccccc2)c2ccccc21", "Value Prefix": ">", "IC50, µM": 30}
{"Structure Smiles": "CC(C)[C@@H]1N=C(c2ccccc2)c2ccccc2N(CCCCC(=O)O)C1=O", "Value Prefix": ">", "IC50, µM": 30}
{"Structure Smiles": "CC[C@@H](C)[C@@H]1N=C(c2ccccc2)c2ccccc2N(CCCCC(=O)NO)C1=O", "Value Prefix": "=", "IC50, µM": 11}
{"Structure Smiles": "Cc1c(C)c(S(=O)(=O)NC(=N)NCCC[C@@H]2N=C(c3ccccc3)c3ccccc3NC2=O)c(C)c2c1OC(C)(C)C2", "Value Prefix": ">", "IC50, µM": 30}
{"Structure Smiles": "C[C@@H]1N=C(c2ccccc2)c2ccccc2N(CCCCC(=O)O)C1=O", "Value Prefix": ">", "IC50, µM": 30}
{"Structure Smiles": "C[C@@H](O)[C@@H]1N=C(c2ccccc2)c2ccccc2N(CCCCC(=O)NO)C1=O", "Value Prefix": "=", "IC50, µM": 11.2}
{"Structure Smiles": "NC(=O)C[C@@H]1N=C(c2ccccc2)c2ccccc2N(CCCCC(=O)NO)C1=O", "Value Prefix": "=", "IC50, µM": 22.5}
{"Structure Smiles": "CC[C@H](C)[C@@H]1N=C(c2ccccc2)c2ccccc2N(CCCCC(=O)OC)C1=O", "Value Prefix": ">", "IC50, µM": 30}
{"Structure Smiles": "O=C(CC[C@@H]1N=C(c2ccccc2)c2ccccc2NC1=O)NO", "Value Prefix": "=", "IC50, µM": 16.9}

###

Listed compounds paired with reported inhibition
Molecular target: Histone deacetylase 3 (Homo sapiens, UniProt O15379)
Sequence (O15379 whole entry): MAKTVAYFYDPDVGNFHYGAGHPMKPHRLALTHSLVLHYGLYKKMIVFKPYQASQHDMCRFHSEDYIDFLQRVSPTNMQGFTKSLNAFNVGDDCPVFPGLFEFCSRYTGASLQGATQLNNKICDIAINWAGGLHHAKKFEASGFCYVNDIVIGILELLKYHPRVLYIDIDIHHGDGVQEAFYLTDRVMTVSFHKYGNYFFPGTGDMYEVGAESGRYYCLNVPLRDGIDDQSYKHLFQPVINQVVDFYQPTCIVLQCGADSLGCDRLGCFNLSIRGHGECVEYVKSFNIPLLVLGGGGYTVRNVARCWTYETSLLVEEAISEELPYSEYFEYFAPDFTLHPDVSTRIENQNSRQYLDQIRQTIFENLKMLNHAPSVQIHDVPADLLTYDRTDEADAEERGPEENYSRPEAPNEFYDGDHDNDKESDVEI
Test: Inhibition of human KDAC3 at 30 uM using FITC-labeled p53 acetylated peptide as substrate after 60 mins by fluorescence assay relative to control

{"Structure Smiles": "CSCC[C@@H]1N=C(c2ccccc2)c2ccccc2N(CCCCC(=O)NO)C1=O", "Experimental System": "Histone deacetylase 3 (Homo sapiens, UniProt O15379)", "inhibition (%)": 98.9}
{"Structure Smiles": "C[C@@H](O)[C@@H]1N=C(c2ccccc2)c2ccccc2N(CCCCC(=O)NO)C1=O", "Experimental System": "Histone deacetylase 3 (Homo sapiens, UniProt O15379)", "inhibition (%)": 94.2}
{"Structure Smiles": "CC[C@H](C)[C@@H]1N=C(c2ccccc2)c2ccccc2N(CCCCC(=O)O)C1=O", "Experimental System": "Histone deacetylase 3 (Homo sapiens, UniProt O15379)", "inhibition (%)": 0}
{"Structure Smiles": "COC(=O)CCCCN1C(=O)CN=C(c2ccccc2)c2ccccc21", "Experimental System": "Histone deacetylase 3 (Homo sapiens, UniProt O15379)", "inhibition (%)": 0}
{"Structure Smiles": "NCCCC[C@@H]1N=C(c2ccccc2)c2ccccc2N(CCCCC(=O)NO)C1=O", "Experimental System": "Histone deacetylase 3 (Homo sapiens, UniProt O15379)", "inhibition (%)": 99.1}
{"Structure Smiles": "NC(=O)CC[C@@H]1N=C(c2ccccc2)c2ccccc2N(CCCCC(=O)NO)C1=O", "Experimental System": "Histone deacetylase 3 (Homo sapiens, UniProt O15379)", "inhibition (%)": 94}

FYI, the data here is from ChEMBL document CHEMBL3997794.
